Molecular target: TLR10 (Homo sapiens, UniProt Q9BXR5)
Sequence (Q9BXR5 20-576): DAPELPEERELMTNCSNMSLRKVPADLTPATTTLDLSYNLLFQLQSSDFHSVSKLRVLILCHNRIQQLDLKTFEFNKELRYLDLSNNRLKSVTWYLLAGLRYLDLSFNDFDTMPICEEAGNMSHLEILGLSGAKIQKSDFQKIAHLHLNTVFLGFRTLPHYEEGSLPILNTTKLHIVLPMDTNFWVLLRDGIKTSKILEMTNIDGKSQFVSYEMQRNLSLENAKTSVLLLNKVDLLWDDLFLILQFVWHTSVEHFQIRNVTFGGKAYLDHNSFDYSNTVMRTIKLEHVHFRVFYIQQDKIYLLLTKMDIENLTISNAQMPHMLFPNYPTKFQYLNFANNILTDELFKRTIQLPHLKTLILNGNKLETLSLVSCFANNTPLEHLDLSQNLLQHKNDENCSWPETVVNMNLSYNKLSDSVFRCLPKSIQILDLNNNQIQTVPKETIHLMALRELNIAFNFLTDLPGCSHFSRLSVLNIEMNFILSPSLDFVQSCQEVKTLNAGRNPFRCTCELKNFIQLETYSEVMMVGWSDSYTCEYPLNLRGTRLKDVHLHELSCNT
Test: mRNA display affinity selection against TLR10, NGS abundance
Format: binding
Design: Chimera protein (extracellular domain, amino acid 20-576;); Fc (chimera); purchased R&D system #6619-TR-050
Settings: TLR10 selection pulldown (-); Top100 selection hits, NGS
Where no end group is shown, it is not given here.
The threshold is 700. Values of Raw reads beneath it are tagged True; values meeting or exceeding it are tagged False.

See these solved cases before continuing.
IGRLYIKSS : True
IGNVCVVSS : True
SVCVYQHQGIRG : False

Criterion: Raw reads strictly below 700. Is it met by CNPYRGNIGW ?
False

Raw reads strictly < 700 for this sequence? CITFQLTRKVAF (not fully specified)
True

Problem: For the sequence RNPYSGNIAI , is Raw reads under 700?
True

State whether 700 exceeds Raw reads recorded for SMYFESLNKLAV .
True
